Form: system (Vascular endothelial growth factor receptor 2 (Homo sapiens, UniProt P35968)), quantity (pIC50), values below.
On this scale, pIC50 is minus log10 of a concentration expressed in M (mol/L).

Param item: CNC(=O)Nc1ccc(CNc2c(C(=O)Nc3ccc(SC(F)(F)F)cc3)cnn2C)cn1 ; param system: Vascular endothelial growth factor receptor 2 (Homo sapiens, UniProt P35968); output pIC50: 7.21

Param item: CNC(=O)Nc1ccc(CNc2ncsc2C(=O)Nc2ccc3c(c2)OC(F)(F)O3)cn1 ; param system: Vascular endothelial growth factor receptor 2 (Homo sapiens, UniProt P35968); output pIC50: 8.52

###

Overview of recorded IC50 for various molecules
target: Serine/threonine-protein kinase B-raf (Homo sapiens)
Sequence (P15056 whole entry): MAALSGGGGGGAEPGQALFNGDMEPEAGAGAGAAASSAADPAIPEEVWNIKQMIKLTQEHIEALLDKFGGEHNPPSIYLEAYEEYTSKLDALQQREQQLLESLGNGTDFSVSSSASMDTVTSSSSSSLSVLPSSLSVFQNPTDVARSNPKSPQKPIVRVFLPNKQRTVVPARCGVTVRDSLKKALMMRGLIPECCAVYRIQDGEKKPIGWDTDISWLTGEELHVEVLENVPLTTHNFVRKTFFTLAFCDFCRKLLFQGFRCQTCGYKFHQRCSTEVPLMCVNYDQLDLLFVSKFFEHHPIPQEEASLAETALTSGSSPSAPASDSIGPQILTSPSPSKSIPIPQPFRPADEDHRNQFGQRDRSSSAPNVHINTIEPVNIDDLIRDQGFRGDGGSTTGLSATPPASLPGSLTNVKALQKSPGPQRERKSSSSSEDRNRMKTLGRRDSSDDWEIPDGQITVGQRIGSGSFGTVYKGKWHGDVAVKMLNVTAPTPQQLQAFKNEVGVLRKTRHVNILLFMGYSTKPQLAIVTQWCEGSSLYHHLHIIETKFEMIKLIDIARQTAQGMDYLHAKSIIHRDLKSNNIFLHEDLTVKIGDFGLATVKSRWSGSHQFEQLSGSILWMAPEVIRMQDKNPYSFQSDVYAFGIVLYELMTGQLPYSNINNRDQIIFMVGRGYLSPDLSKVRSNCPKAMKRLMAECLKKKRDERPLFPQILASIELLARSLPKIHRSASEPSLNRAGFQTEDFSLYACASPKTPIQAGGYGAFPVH
Answer in nM, number only, no unit symbol.

chemical.string | tested.target | IC50 / nM
CCNC(=O)c1cc(CNc2ccccc2C(=O)Nc2ccc3c(c2)OC(F)(F)O3)ccn1 | Serine/threonine-protein kinase B-raf (Homo sapiens) | 333
O=C(Nc1ccc2c(c1)OC(F)(F)O2)c1ccccc1NCc1ccnc(NCCCO)c1 | Serine/threonine-protein kinase B-raf (Homo sapiens) | 142
O=C(NC1CC1)c1cc(CNc2ccccc2C(=O)Nc2ccc3c(c2)OC(F)(F)O3)ccn1 | Serine/threonine-protein kinase B-raf (Homo sapiens) | 192
O=C(Nc1ccc2c(c1)CCC2)Nc1cc(CNc2ccccc2C(=O)Nc2ccc3c(c2)OC(F)(F)O3)ccn1 | Serine/threonine-protein kinase B-raf (Homo sapiens) | 64
CNC(=O)c1cc(CNc2ccsc2C(=O)Nc2ccc3c(c2)OC(F)(F)O3)ccn1 | Serine/threonine-protein kinase B-raf (Homo sapiens) | 61

Param item: CC(=O)Nc1cc(CNc2ccccc2C(=O)Nc2ccc3c(c2)OC(F)(F)O3)ccn1 ; param system: Serine/threonine-protein kinase B-raf (Homo sapiens); output IC50: 5

Param item: NC(=S)c1cc(CNc2ccccc2C(=O)Nc2ccc3c(c2)OC(F)(F)O3)ccn1 ; param system: Serine/threonine-protein kinase B-raf (Homo sapiens); output IC50: 100

Param item: O=C(Nc1ccc2c(c1)OC(F)(F)O2)c1ccccc1NCc1ccnc(NCCO)c1 ; param system: Serine/threonine-protein kinase B-raf (Homo sapiens); output IC50: 112

Param item: CCNC(=O)Nc1cc(CNc2ccccc2C(=O)Nc2ccc3c(c2)OC(F)(F)O3)ccn1 ; param system: Serine/threonine-protein kinase B-raf (Homo sapiens); output IC50: 90

Param item: CNC(=O)c1cc(CNc2ncsc2C(=O)Nc2ccc3c(c2)OC(F)(F)C(F)(F)O3)ccn1 ; param system: Serine/threonine-protein kinase B-raf (Homo sapiens); output IC50: 192

Param item: CNC(=O)Nc1cc(CNc2ccccc2C(=O)Nc2ccc3c(c2)OC(F)(F)O3)ccn1 ; param system: Serine/threonine-protein kinase B-raf (Homo sapiens); output IC50: 24
